Origin of the recorded values: patent US9040488B2

Answer each item with its documented CC50.
System: BHK cells
assayOverview: Cytotoxicity (MTT) in BHK cells
Format: cell-based
cond: Table 5; read-out: CC50 in BHK cells
Numbers only, in µM.

Quick batch: CC50 for everything below.
1. C[C@@H]1CCCCC1OCCCCCCN1C[C@H](O)[C@@H](O)[C@H](O)[C@H]1CO (some centres unmarked)
2. CC(C)[C@@H]1CC[C@@H](C)C[C@H]1OCCCCCCN1C[C@H](O)[C@@H](O)[C@H](O)[C@H]1CO
3. Cc1ccc(C)c(OCCCCCCN2C[C@H](O)[C@@H](O)[C@H](O)[C@H]2CO)c1

1: 70; 2: 70; 3: 75
